- targetSystem: Glucocorticoid receptor (Homo sapiens, UniProt P04150)
- Sequence (P04150 whole entry): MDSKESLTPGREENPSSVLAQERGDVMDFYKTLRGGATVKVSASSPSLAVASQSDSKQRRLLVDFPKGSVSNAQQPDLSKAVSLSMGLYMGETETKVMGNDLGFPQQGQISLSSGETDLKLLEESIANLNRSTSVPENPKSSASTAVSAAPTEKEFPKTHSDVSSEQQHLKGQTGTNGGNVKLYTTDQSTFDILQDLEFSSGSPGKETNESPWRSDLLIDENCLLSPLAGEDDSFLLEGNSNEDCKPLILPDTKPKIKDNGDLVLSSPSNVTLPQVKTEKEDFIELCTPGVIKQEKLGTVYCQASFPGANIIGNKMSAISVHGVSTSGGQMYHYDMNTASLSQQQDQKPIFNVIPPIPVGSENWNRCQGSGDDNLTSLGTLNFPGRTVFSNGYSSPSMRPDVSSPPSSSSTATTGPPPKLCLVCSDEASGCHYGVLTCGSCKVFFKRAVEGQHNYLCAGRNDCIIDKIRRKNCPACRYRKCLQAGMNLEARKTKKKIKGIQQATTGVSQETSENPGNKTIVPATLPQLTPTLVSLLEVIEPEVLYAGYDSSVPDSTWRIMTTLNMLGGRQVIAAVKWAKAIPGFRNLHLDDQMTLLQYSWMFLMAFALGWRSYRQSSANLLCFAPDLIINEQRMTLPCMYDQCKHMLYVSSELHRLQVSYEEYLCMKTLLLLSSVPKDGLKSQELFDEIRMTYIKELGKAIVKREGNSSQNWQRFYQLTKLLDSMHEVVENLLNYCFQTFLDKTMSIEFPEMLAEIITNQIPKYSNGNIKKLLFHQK
- method: Antagonist activity at human glucocorticoid receptor in SW1353 cells assessed as inhibition of dexamethasone-induced luciferase expression by MMTV5 reporter gene assay
- Type: functional, cell-based
pKi: −log10 of the molar value.
Below: a set of entries, each annotated with reported pKi.
measuredQuantity: pKi

| compound | testResult |
| --- | --- |
| CC(C)(C)c1ccc(S(=O)(=O)N2CCC3=CC(=O)CCC3(Cc3ccc(F)cc3)C2)cc1 (racemic) | < 6.00 |
| CC(=O)Nc1ccc(CC23CCC(=O)C=C2CCN(S(=O)(=O)c2ccc(C(C)(C)C)cc2)C3)cc1 (racemic) | < 6.00 |
| CC(C)(C)c1ccc(S(=O)(=O)N2CCC3=CC(=O)CCC3(Cc3ccc(NS(C)(=O)=O)cc3)C2)cc1 (racemic) | < 6.00 |
| CN(C)S(=O)(=O)Nc1ccc(CC23CCC(=O)C=C2CCN(S(=O)(=O)c2ccc(C(C)(C)C)cc2)C3)cc1 (racemic) | 6.49 |

###

- targetSystem: Glucocorticoid receptor (Homo sapiens, UniProt P04150)
- method: Displacement of [3H]dexamethasone from human glucocorticoid receptor expressed in recombinant baculovirus

| compound | Ki |
| --- | --- |
| O=C1C=C2CCN(S(=O)(=O)c3ccc(F)cc3)CC2(Cc2ccccc2)CC1 (racemic) | 800 nM |
| COc1ccc(C[C@]23CCC(=O)C=C2CCN(S(=O)(=O)c2ccc(C(C)(C)C)cc2)C3)cc1 | 4 nM |
| O=C1C=C2CCN(C(=O)c3ccccc3)CC2(Cc2ccccc2)CC1 (racemic) | > 10000 nM |
| CC(C)(C)c1ccc(S(=O)(=O)N2CCC3=CC(=O)CC[C@@]3(Cc3ccccc3)C2)cc1 | > 10000 nM |
| CN(C)c1ccc(CC23CCC(=O)C=C2CCN(S(=O)(=O)c2ccc(C(C)(C)C)cc2)C3)cc1 (racemic) | 15 nM |
| CC(C)(C)c1ccc(S(=O)(=O)N2CCC3=CC(=O)CCC3(Cc3ccccc3)C2)cc1 (racemic) | 14 nM |
| CC(=O)Nc1ccc(S(=O)(=O)N2CCC3=CC(=O)CCC3(Cc3ccccc3)C2)cc1 (racemic) | 750 nM |

###

Below: a set of entries, each annotated with reported Ki.
- targetSystem: UniProt P04150
- method: Antagonist activity at human glucocorticoid receptor in SW1353 cells assessed as inhibition of dexamethasone-induced luciferase expression by MMTV5 reporter gene assay
- Type: functional, cell-based
measuredQuantity: Ki

| molecule | targetSystem | testResult |
| --- | --- | --- |
| CC(C)(C)c1ccc(S(=O)(=O)N2CCC3=CC(=O)CCC3(Cc3ccc(N4CCCCC4)cc3)C2)cc1 (racemic) | UniProt P04150 | > 1000 nM |
| CN(C)c1ccc(CC23CCC(=O)C=C2CCN(S(=O)(=O)c2ccc(C(C)(C)C)cc2)C3)cc1 (racemic) | UniProt P04150 | > 1000 nM |
| CC(C)(C)c1ccc(S(=O)(=O)N2CCC3=CC(=O)CCC3(Cc3ccccc3)C2)cc1 (racemic) | UniProt P04150 | > 1000 nM |

These data points were gathered from ChEMBL document CHEMBL1139829.
